TESTED_SYSTEM: Full-length human MNK2 (Homo sapiens, UniProt Q9HBH9, T379D)
Construct: GST (N); purchased Carna Biosciences 02-146; host or cells: baculovirus expression system
Sequence (Q9HBH9 whole entry T379D): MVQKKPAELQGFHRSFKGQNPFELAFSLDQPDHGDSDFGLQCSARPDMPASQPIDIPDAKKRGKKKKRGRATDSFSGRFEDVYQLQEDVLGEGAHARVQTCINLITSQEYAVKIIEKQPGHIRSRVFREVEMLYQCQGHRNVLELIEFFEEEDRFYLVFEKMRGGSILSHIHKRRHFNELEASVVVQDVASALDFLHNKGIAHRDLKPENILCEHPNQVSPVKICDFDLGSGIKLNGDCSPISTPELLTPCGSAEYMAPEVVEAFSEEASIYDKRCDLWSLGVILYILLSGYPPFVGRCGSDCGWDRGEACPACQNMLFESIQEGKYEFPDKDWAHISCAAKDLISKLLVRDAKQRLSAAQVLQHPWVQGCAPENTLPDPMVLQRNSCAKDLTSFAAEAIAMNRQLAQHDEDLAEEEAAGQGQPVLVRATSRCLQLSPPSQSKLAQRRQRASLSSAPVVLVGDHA
PROTOCOL_NOTES: MNK2 biochemical IC50 assay (Caliper Mobility Shift Assay)
TEST_CONTEXT: read-out: P(IC50) MNK2 (converted)
ENDPOINT_LABEL: IC50 (nM)

**Query** GET /values?readout=IC50&item= CO[C@@H]1CCCC[C@H]1Oc1cc(F)ccc1Nc1ncnc2sc(C(=O)NCCCN(C)C)nc12 [Example 20]
**Result** 398

**Query** What IC50 value was documented for this molecule, CN(C)CCCNC(=O)c1nc2c(Nc3ccc(F)cc3O[C@@H]3CCCOC3)ncnc2s1 [Example 16] ?
**Result** 100

**Query** I would be grateful if you could share the reported IC50 for CO[C@H]1CCCC[C@@H]1Oc1cc(F)ccc1Nc1ncnc2sc(C(=O)NCCCN(C)C)nc12 [Example 21] .
**Result** 1260

**Query** Item under review: CC1Cc2ccccc2N1c1ncnc2sc(C(=O)NCC3CCNCC3)nc12 (stereo in doubt) [Example 134] . Reported IC50?
**Result** 25.1

**Query** Consider the molecule O=C(NCC1CCNCC1)c1nc2c(N3CC(CCO)c4ccccc43)ncnc2s1 (stereo not shown) [Example 136] and give its measured IC50.
**Result** 5.01

1. CNCCCNC(=O)c1nc2c(Nc3ccc(F)cc3OC(C)C)ncnc2s1 [Example 29]
2. CNCCNC(=O)c1nc2c(N3CCc4cc(F)ccc43)ncnc2s1 [Example 71]
3. O=C(NC1CCOCC1)c1nc2c(N3CC(CCO)c4ccccc43)ncnc2s1 (stereo not shown) [Example 110]
**Query** # rank by IC50, ascending (min first) Lab note: record answer as labels in requested order.
**Result** 2, 3, 1
(2: 6.31 nM, 3: 10 nM, 1: 50.1 nM)

1. C[C@@H]1Cc2ccccc2N1c1ncnc2sc(C(=O)NC3CCOCC3)nc12 [Example 130]
2. NCCC1CN(c2ncnc3sc(C(=O)NC4CC4)nc23)c2ccccc21 (stereo not shown) [Example 164]
3. C[C@@H]1Cc2ccccc2N1c1ncnc2sc(C(=O)NC3CCNCC3)nc12 [Example 129]
4. CN1CCC(NC(=O)c2nc3c(N4CCc5cc(F)ccc54)ncnc3s2)CC1 [Example 67]
**Query** List these items ordered by IC50, big to small. Show the ranking through the labels, in the order asked for.
**Result** 1, 3, 2, 4

1. CNC(=O)c1nc2c(N3CCc4cc(F)ccc43)ncnc2s1 [Example 69]
2. O=C(NCC1CCNCC1)c1nc2c(Nc3ccc4[nH]ncc4c3)ncnc2s1 [Example 50]
3. CN(C)CCCNC(=O)c1nc2c(Nc3ccc(F)cc3O[C@@H]3CCCC[C@H]3O)ncnc2s1 [Example 15]
4. O=C(NC1CCOCC1)c1nc2c(N3CC4(CCCC4)c4ccccc43)ncnc2s1 [Example 41]
**Query** Highest IC50 first, then in falling order down to the smallest. Record the ranking as a list of labels in the requested order.
**Result** 3, 2, 4, 1
(3: 631 nM, 2: 31.6 nM, 4: 12.6 nM, 1: 5.01 nM)

----------
TESTED_SYSTEM: Full-length human MNK1 (Homo sapiens, UniProt Q9BUB5, T385D)
Construct: GST (N); purchased Carna Biosciences 02-145; host or cells: baculovirus expression system
Sequence (Q9BUB5 1-424 isoform Q9BUB5-2 T344D): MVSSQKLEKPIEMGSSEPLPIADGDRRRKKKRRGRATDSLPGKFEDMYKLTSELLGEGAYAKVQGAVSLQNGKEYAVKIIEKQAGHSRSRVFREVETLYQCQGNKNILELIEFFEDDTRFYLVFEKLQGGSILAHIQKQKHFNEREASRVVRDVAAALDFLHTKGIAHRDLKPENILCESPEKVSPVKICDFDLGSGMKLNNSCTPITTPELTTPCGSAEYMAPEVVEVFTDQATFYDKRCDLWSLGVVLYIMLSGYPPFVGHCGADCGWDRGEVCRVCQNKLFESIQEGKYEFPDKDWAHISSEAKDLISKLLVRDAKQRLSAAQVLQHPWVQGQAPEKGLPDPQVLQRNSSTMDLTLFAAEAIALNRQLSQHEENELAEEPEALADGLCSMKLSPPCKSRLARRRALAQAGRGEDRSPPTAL
PROTOCOL_NOTES: MNK1 biochemical IC50 assay (Caliper Mobility Shift Assay)
TEST_CONTEXT: read-out: P(IC50) MNK1 (converted)
ENDPOINT_LABEL: IC50 (nM)

A selection of reference data follows.
**Query** Field request: IC50 | item: CNCCCNC(=O)c1nc2c(N3CCc4ccccc43)ncnc2s1
**Result** 7.94

**Query** IC50 for CNC(=O)c1nc2c(N3CCc4cc(C(F)(F)F)ccc43)ncnc2s1 ?
**Result** 316

**Query** Param item = CN1CCC(NC(=O)c2nc3c(N4CCc5cc([N+](=O)[O-])ccc54)ncnc3s2)CC1 ; retrieve measured IC50.
**Result** 15.8

**Query** I have this compound here, Fc1ccc2c(c1)CCN2c1ncnc2scnc12 , and I need its recorded IC50.
**Result** 79.4

**Query** Quick check: IC50 of CC(C)Oc1cc(F)ccc1Nc1ncnc2sc(C(=O)NCCN3CCNCC3)nc12 ?
**Result** 50.1

P. O=C(NC1COC1)c1nc2c(N3CCc4ccccc43)ncnc2s1
Q. CC(C)Oc1ncccc1Nc1ncnc2sc(C(=O)NCC3CCNCC3)nc12
R. CC1CN(c2ncnc3sc(C(=O)NC4CCOCC4)nc23)c2ccccc21 (centres unmarked)
S. CNC(=O)c1nc2c(N3CC(C)c4ccccc43)ncnc2s1 (centres unmarked)
**Query** Arrange by IC50, high to low. Reply with the labels, ordered as the question asks.
**Result** Q, P, S, R

I. CC1Cc2ccccc2N1c1ncnc2sc(C(=O)NCC3CCNCC3)nc12 (stereo in doubt)
II. O=C(NC1CCOCC1)c1nc2c(N3CC4(CCOCC4)c4ccccc43)ncnc2s1
**Query** Between I and II , which one has the lower reported IC50 value? Respond using the label that marks the chosen record.
**Result** I
(I: 31.6 nM, II: 63.1 nM)

Ref: patent US10669284B2
